Values were extracted from the supplement of paper PMC10567573.

B1: KRT15 (parent)
chain: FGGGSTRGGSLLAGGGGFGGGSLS

Variants of: B1
measurement-notes: protein stability index of a GFP-peptide fusion (GPS, HEK-293T) (PSI 1-6); higher = more stable;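 also: lentivirally expressed fusions sorted by FACS into six bins by GFP to DsRed ratio, PSI derived from sequencing read proportions per bin multiplied by bin number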
recorded-conditions: c terminus: a fixed tail appended
Rule: protein stability index under 2 gives FALSE, otherwise TRUE.

Given the entry "F1K" , answer whether its protein stability index meets or surpasses 2.
TRUE

How about "A13C" ?
FALSE

Now consider "G21N" .
TRUE

Also "G16Q" , if possible.
TRUE

Now the variant "S24I"
FALSE

Another variant to look at: "S22R"
TRUE

Proceed to "G21P"
TRUE

// repeat for "T6H" and report
FALSE
